Tested on: OVCAR-8 ovarian
test method notes: NCI-60 one-dose screen, 48 h (100 = growth as untreated, 0 = no growth, -100 = all killed)
test parameters: 10 µM unless noted
Compounds without any hit were thinned out: in the full panel of roughly 83,000, 20% have a hit. Activity calls are given as the source filed them. How the source made its calls: active means growth percent below 10; inactive means the rest.

- molecule: "Cc1cc(C)c([I+]c2c(C)cc(C)cc2C)c(C)c1"
  growth: "-60.3% (active)"
- molecule: "CN=C(N)N/N=C(\\c1ccccc1)c1ccc(Br)cc1"
  growth: "1.03% (active)"
- molecule: "CC(=O)c1c(O)c(C)c(O)c2c1OC1=CC(=O)C(C(C)=O)C(=O)C12C (centres undefined)"
  growth: "92.7% (inactive)"
- molecule: "S=C=Nc1ccc(N2CCOCC2)cc1"
  growth: "102% (inactive)"
- molecule: "CCCCCCCCCCCC[n+]1ccc(CCCCCCCCC)cc1"
  growth: "-80.4% (active)"
- molecule: "CCN(CC)c1ccc(/C=C\\C(=O)c2ccc(NC(C)=O)cc2)cc1"
  growth: "76% (inactive)"
- molecule: "OC(Cc1cc(CC(O)(C(F)(F)F)C(F)(F)F)nc(CC(O)(C(F)(F)F)C(F)(F)F)c1)(C(F)(F)F)C(F)(F)F"
  growth: "9.71% (active)"
- molecule: "COc1ccc2nc3cc(Cl)ccc3c(NCCCCCN3CCCCC3)c2c1"
  growth: "-13.6% (active)"
- molecule: "CC(C)c1ccc(Nc2n[nH]c(=S)s2)cc1"
  growth: "102% (inactive)"
- molecule: "Clc1ccccc1C(c1ccccc1)(c1ccccc1)n1ccnc1"
  growth: "29.1% (inactive)"
- molecule: "CC12CCC(O)CC1=CCC1C2CCC2(C)C3=NN=CC3CC12 (centres undefined)"
  growth: "107% (inactive)"
- molecule: "Cc1ccc(Nc2ccc(O)c3c2C(=O)c2c(O)ccc(Nc4ccc(C)cc4)c2C3=O)cc1"
  growth: "91.4% (inactive)"
- molecule: "CCNc1nnnn1CC"
  growth: "113% (inactive)"
- molecule: "CCc1oc2ccccc2c1C(=O)c1cc(Br)c(O)c(Br)c1"
  growth: "79.2% (inactive)"
